# Test system: cocklebur
# PROTOCOL DESCRIPTION: Test B pre/postemergence cocklebur
# Format: in vivo, Xanthium strumarium
# RUN CONDITIONS: Rate 125 g/ha; Preemergence; scale of 0 to 10 where 0 is no effect and 10 is complete control
In this section we review reported Cocklebur plant response rating values for a set of compounds.
Just the number, please, no unit after it.

Previously resolved entries follow.
{"COMPOUND": "Cc1ccccc1-n1c(=O)on(C(=O)N(c2ccc(F)cc2)C(C)C2CC2)c1=O (centres unmarked)", "Cocklebur plant response rating": 0}
{"COMPOUND": "Cc1ccccc1-n1c(=O)on(C(=O)N(c2ccc(N(C)C)cc2)C(C)C)c1=O", "Cocklebur plant response rating": 0}
{"COMPOUND": "CC(C)N(C(=O)n1oc(=O)n(CC2(C)COC2)c1=O)c1ccc(F)cc1", "Cocklebur plant response rating": 0}
{"COMPOUND": "CC(C)N(C(=O)n1oc(=O)n(CC(=O)OC(C)(C)C)c1=O)c1ccc(F)cc1", "Cocklebur plant response rating": 0}
{"COMPOUND": "CC(C)N(C(=O)n1oc(=O)n(C(C)C(=O)c2ccccc2)c1=O)c1ccc(F)cc1 (centres unmarked)", "Cocklebur plant response rating": 0}

// query Provide Cocklebur plant response rating value for the following compound: CC(C)N(C(=O)n1oc(=O)n(CCCF)c1=O)c1ccc(F)cc1
// result 0

// query Provide Cocklebur plant response rating value for the following compound: CC(C)N(C(=O)n1oc(=O)n(CCC(F)=C(F)F)c1=O)c1ccc(F)cc1
// result 0

// query Provide Cocklebur plant response rating value for the following compound: CCCCCC#CCn1c(=O)on(C(=O)N(c2ccc(F)cc2)C(C)C)c1=O
// result 0

* * *

# Test system: morningglory
# PROTOCOL DESCRIPTION: Test B pre/postemergence morningglory
# Assay type: in vivo, Ipomoea hederacea
# RUN CONDITIONS: Preemergence, Rate 250 g/ha; scale 0 to 10, 0 is no effect, 10 is complete control
In this section we review reported Morningglory plant response rating values for a set of compounds.
Just the number, please, no unit after it.

// query Provide Morningglory plant response rating value for the following compound: CC(C)N(C(=O)n1oc(=O)n(Cc2ccco2)c1=O)c1ccc(F)cc1
// result 0

* * *

# Tested on: rape
# PROTOCOL DESCRIPTION: Test B pre/postemergence rape
# Format: in vivo, Brassica napus
# RUN CONDITIONS: Rate 500 g/ha, Preemergence; scale 0 to 10 (0 no effect, 10 complete control)
# Experimental: […] At the same time, these crop and weed species were also treated with postemergence applications of test chemicals formulated in the same manner. […] Treated plants and controls were maintained in a greenhouse for twelve to sixteen days, after which all species were compared to controls and visually evaluated. […]
In this section we review reported Rape plant response rating values for a set of compounds.
Just the number, please, no unit after it.

Previously resolved entries follow.
{"COMPOUND": "COC(CCl)n1c(=O)on(C(=O)N(c2ccc(F)cc2F)C(C)C)c1=O (stereo not drawn)", "Rape plant response rating": 6}
{"COMPOUND": "COP(=O)(CCn1c(=O)on(C(=O)N(c2ccc(F)cc2F)C(C)C)c1=O)OC", "Rape plant response rating": 2}
{"COMPOUND": "COCC(OC)n1c(=O)on(C(=O)N(c2ccc(Cl)cc2)C(C)C)c1=O (stereo not drawn)", "Rape plant response rating": 7}
{"COMPOUND": "C#CCCn1c(=O)on(C(=O)N(c2ccc(F)cc2F)C(C)C)c1=O", "Rape plant response rating": 9}
{"COMPOUND": "C#CCn1c(=O)on(C(=O)N(c2ccc(F)cc2)C(C)C)c1=O", "Rape plant response rating": 9}

// query Provide Rape plant response rating value for the following compound: CCC(C)n1c(=O)on(C(=O)N(c2ccc(F)cc2)C(C)C)c1=O (stereo not drawn)
// result 9
